- System: CYP 3A4 (Homo sapiens)
- Sequence (P08684 whole entry): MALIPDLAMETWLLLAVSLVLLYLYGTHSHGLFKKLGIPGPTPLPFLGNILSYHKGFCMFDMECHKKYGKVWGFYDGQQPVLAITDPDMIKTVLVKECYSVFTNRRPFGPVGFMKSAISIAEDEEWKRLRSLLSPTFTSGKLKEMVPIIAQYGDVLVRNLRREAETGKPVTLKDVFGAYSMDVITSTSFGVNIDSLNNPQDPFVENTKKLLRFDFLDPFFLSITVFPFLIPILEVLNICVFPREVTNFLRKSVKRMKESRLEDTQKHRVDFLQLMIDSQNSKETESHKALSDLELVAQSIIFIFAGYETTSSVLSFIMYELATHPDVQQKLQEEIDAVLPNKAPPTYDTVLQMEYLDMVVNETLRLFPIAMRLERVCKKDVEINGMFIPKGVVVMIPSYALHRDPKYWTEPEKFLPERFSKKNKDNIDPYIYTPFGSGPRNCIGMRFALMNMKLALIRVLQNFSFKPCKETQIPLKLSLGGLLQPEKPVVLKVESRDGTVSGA
- Test protocol: biochemical
- Condition context: CYP 3A4 IC50 VG, VG substrate
Measurement kind: pIC50
# pIC50 = -log10(concentration in molar units)

Look at this molecule and give its reported pIC50. Cc1csc([C@](C)(O)c2nnc(Nc3ccn(Cc4csc(C)n4)n3)s2)n1 4.60

----------
- Test protocol: in vivo
- Condition context: female, C57BL/6j, mouse, iv, 0.5 mg/kg
Measurement kind: Vd (L/kg)
A number alone suffices; assume L/kg.

Look at this compound and give its reported Vd. Cc1ccn(C(C)c2nnc(Nc3ccn(Cc4c(F)cccc4Cl)n3)s2)n1 (stereo not shown) 2.5

----------
- Test protocol: in vivo
- Condition context: female, C57BL/6j, mouse, po, 100 mg/kg
Measurement kind: Cmax (ng/mL)
A number alone suffices; assume ng/mL.

Look at this compound and give its reported Cmax. Cc1csc([C@](C)(O)c2nnc(Nc3ccn(Cc4csc(C)n4)n3)s2)n1 37300

----------
- Test protocol: in vivo
- Condition context: female, C57BL/6j, mouse, iv, 4 mg/kg
Measurement kind: clearance (mL/min/kg)
A number alone suffices; assume mL/min/kg.

Look at this molecule and give its reported clearance. Cc1csc([C@](C)(O)c2nnc(Nc3ccn(Cc4csc(C)n4)n3)s2)n1 [GSK693] 83

----------
- Test protocol: in vivo
- Condition context: female, C57BL/6j, mouse, iv, 4 mg/kg
Measurement kind: half-life (min)
A number alone suffices; assume min.

Look at this compound and give its reported half-life. Cc1csc([C@](C)(O)c2nnc(Nc3ccn(Cc4csc(C)n4)n3)s2)n1 56.4

----------
- Test protocol: in vivo
- Condition context: female, C57BL/6j, mouse, po, 100 mg/kg
Measurement kind: Tmax (min)
A number alone suffices; assume min.

Look at this molecule and give its reported Tmax. Cc1csc([C@](C)(O)c2nnc(Nc3ccn(Cc4csc(C)n4)n3)s2)n1 25.2

----------
- System: hERG potassium channel (Homo sapiens)
- Sequence (Q12809 whole entry): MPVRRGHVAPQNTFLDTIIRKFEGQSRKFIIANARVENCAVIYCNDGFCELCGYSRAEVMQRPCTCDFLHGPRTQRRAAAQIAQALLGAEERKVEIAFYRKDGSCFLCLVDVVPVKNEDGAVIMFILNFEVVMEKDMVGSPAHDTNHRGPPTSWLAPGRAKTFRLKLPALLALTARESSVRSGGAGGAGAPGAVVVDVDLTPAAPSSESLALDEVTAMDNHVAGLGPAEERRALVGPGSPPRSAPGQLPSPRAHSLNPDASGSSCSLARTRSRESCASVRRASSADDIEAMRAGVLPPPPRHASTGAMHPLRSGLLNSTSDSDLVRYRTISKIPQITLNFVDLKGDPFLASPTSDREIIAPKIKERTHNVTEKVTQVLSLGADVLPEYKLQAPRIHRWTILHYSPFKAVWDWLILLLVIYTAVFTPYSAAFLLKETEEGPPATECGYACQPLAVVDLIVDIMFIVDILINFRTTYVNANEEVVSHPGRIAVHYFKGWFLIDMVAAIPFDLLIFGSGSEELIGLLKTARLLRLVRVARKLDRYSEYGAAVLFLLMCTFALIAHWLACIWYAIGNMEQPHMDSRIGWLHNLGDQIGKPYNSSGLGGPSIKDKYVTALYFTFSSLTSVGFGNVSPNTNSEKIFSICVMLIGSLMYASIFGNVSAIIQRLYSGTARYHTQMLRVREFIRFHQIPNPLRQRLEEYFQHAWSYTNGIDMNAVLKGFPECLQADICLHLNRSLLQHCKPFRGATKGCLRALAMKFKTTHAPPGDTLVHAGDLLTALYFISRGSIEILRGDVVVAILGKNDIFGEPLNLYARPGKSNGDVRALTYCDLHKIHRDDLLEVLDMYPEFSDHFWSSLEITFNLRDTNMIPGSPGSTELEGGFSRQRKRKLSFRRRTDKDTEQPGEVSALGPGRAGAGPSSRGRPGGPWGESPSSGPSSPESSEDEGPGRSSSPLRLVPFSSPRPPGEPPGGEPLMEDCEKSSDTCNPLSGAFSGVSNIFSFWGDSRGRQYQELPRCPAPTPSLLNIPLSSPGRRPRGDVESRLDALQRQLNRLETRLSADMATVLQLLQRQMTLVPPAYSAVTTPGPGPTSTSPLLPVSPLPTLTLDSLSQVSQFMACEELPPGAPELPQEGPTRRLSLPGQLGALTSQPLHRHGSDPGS
Measurement kind: IC50

Look at this molecule and give its reported IC50. Cc1csc([C@](C)(O)c2nnc(Nc3ccn(Cc4csc(C)n4)n3)s2)n1 > 50 µM

----------
- System: CYP 3A4 (Homo sapiens)
- Test protocol: biochemical
- Condition context: CYP 3A4 IC50 VR, VR substrate
Measurement kind: IC50

Look at this compound and give its reported IC50. Cc1csc([C@](C)(O)c2nnc(Nc3ccn(Cc4csc(C)n4)n3)s2)n1 > 50.1 µM
